Test system: Tetranychus cinnabarinus
Experiment: Insecticidal activity against Tetranychus cinnabarinus (carmine spider mite) assessed as insect mortality at 300 mg/mL
Type: functional
Set-up: dose or concentration left out as unconfirmed
Binary classification by mortality, with 90% as an inclusive lower bound for true (1); all other cases are false (0).

input: Determine whether measured mortality meets or exceeds 90% for CCOP(=O)(OCC)SCCCCCCCSP(=O)(OCC)OCC
output: false (0)

input: Determine whether measured mortality meets or exceeds 90% for CCOP(=O)(OCC)SCCCCSP(=O)(OCC)OCC
output: false (0)

input: Determine whether measured mortality meets or exceeds 90% for CCOP(=S)(OCC)Oc1nc(Cl)c(Cl)cc1Cl
output: false (0)

input: Determine whether measured mortality meets or exceeds 90% for CCOP(=O)(OCC)SCCCCCCN1C(=O)c2ccccc2C1=O
output: false (0)

input: Determine whether measured mortality meets or exceeds 90% for CCOP(=O)(OCC)SCCCCCN1C(=O)c2ccccc2C1=O
output: false (0)

input: Determine whether measured mortality meets or exceeds 90% for CCOP(=O)(OCC)SCCCCCSP(=O)(OCC)OCC
output: false (0)

input: Determine whether measured mortality meets or exceeds 90% for CCOP(=O)(OCC)SCCCCCCCCCN1C(=O)c2ccccc2C1=O
output: false (0)

input: Determine whether measured mortality meets or exceeds 90% for CCOP(=O)(OCC)SCCCCCCCCN1C(=O)c2ccccc2C1=O
output: false (0)
